Measurement Notes: Half life in rat at 1 mg/kg, iv
Type: ADME, organism-based
Design: dose 1 mg/kg, route intravenous
Assay Conditions: in vivo
Measured Property: half-life (min)
Give the value, in units of min, as a plain number.

IN: Quick one: half-life of `O=C([O-])C[C@H](O)C[C@H](O)CCn1c(-c2ccc(F)cc2)nc(C(=O)NCc2cccc(F)c2)c1C1CC1.[Na+]` ?
OUT: 25.8

IN: Queued: `Cc1ccc(CNC(=O)c2nn(-c3ccc(F)cc3)c(CC[C@@H](O)C[C@@H](O)CC(=O)O)c2C(C)C)cc1`
OUT: 20.4

====

Measurement Notes: Cmax in human plasma at 80 mg administered as single dose
Format: ADME, organism-based
Set-up: dose 80 mg
Measured Property: Cmax (ng/mL)
State just the number; it will be interpreted in ng/mL.

IN: Endpoint output: Cmax of `Cc1ccc(CNC(=O)c2nn(-c3ccc(F)cc3)c(CC[C@@H](O)C[C@@H](O)CC(=O)O)c2C(C)C)cc1` . Value?
OUT: 4480

Data origin, for the record: ChEMBL document CHEMBL1781963
